Source listed as paper PMC12345137.

TEST TARGET: SA AgrC-IV (Staphylococcus aureus)
Sequence (Q309Z2 entry or part of it): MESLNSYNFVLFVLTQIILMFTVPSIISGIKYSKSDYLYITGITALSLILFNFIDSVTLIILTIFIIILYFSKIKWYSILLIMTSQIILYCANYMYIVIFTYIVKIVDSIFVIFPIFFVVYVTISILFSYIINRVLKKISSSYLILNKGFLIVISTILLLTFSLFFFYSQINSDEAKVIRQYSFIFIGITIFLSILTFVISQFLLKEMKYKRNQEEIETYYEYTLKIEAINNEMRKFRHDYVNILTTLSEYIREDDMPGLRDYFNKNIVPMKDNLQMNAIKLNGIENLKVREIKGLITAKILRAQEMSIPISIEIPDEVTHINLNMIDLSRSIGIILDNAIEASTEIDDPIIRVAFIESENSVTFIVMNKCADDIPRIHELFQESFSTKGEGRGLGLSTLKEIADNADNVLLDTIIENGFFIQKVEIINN
PROTOCOL TEXT: β-Lactamase assay, reporter strain RN10829 (P2-agrA:P3-blaZ) with pagrC-IV
Format: cell-based
DETAILS: 100 nM cognate AIP; ± SEM; -b = no inhibition recorded at the highest AIP concentration tested; -a = only partial inhibition observed; this study (curves in Fig. S22)
Positions of bridges follow the written chain, without caps; N, C: chain ends. Residues, ends and D or L forms follow the SMILES beside them.
MEASURED ATTRIBUTE: IC50, SA AgrC-IV, b-lactamase assay

{"COMPOUND": "CC[C@H](C)[C@H](NC(=O)[C@@H](N)[C@@H](C)O)C(=O)N[C@@H](CO)C(=O)N[C@@H](CO)C(=O)N[C@H](C(=O)N[C@@H](CCCCN)C(=O)N1CCC[C@H]1C(=O)N[C@H]1CSC(=O)[C@H](C(C)C)NC(=O)[C@H](Cc2ccccc2)NC(=O)CNC(=O)[C@H]([C@@H](C)O)NC1=O)C(C)C [compound 18, S. cohnii AIP-I] (H-TISSVKPCTGFV; thioester 8-C)", "MEASURED ATTRIBUTE": "IC50, SA AgrC-IV, b-lactamase assay", "OBSERVED RESULT": "-b"}
{"COMPOUND": "CC[C@H](C)[C@H](NC(=O)[C@@H](N)CC(=O)O)C(=O)N[C@H]1CSC(=O)[C@H](Cc2ccccc2)NC(=O)[C@H](Cc2ccc(O)cc2)NC(=O)[C@H](C)NC(=O)[C@H](CC(N)=O)NC1=O [compound 8, S. lugdunensis AIP-I] (H-DICNAYF; thioester 3-C; N-terminus assumed)", "MEASURED ATTRIBUTE": "IC50, SA AgrC-IV, b-lactamase assay", "OBSERVED RESULT": "-b"}
{"COMPOUND": "CC(C)[C@H](NC(=O)[C@H](CC(N)=O)NC(=O)[C@H](Cc1ccc(O)cc1)NC(=O)[C@@H](N)CO)C(=O)N[C@H]1CSC(=O)[C@H](Cc2ccccc2)NC(=O)[C@H](Cc2ccc(O)cc2)NC(=O)CNC(=O)CNC1=O [compound 10, S. hominis AIP-I] (H-SYNVCGGYF; thioester 5-C; N-terminus assumed)", "MEASURED ATTRIBUTE": "IC50, SA AgrC-IV, b-lactamase assay", "OBSERVED RESULT": "-b"}

====

TEST TARGET: S. aureus agr-III (Staphylococcus aureus)
Sequence (O33590 entry or part of it): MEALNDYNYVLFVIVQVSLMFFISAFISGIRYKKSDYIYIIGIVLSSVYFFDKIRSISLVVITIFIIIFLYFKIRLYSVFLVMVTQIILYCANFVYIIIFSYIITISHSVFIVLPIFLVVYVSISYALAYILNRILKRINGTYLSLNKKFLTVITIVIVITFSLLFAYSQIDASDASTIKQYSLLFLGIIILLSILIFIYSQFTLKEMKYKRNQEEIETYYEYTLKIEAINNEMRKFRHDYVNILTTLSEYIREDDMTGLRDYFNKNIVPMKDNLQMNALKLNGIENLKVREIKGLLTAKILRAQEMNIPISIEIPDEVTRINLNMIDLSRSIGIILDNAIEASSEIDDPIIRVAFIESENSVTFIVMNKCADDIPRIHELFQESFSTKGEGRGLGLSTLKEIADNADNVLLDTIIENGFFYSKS
PROTOCOL TEXT: cell-based
Positions of bridges follow the written chain, without caps; N, C: chain ends. Residues, ends and D or L forms follow the SMILES beside them.
MEASURED ATTRIBUTE: IC50 (pM)
The reply should contain only the number, in pM.

Problem: Suppose we examine the molecule CC(C)C[C@@H]1NC(=O)[C@@H](NC(=O)[C@@H]2CCCN2C(=O)[C@H](CC(N)=O)NC(=O)[C@H](Cc2ccc(O)cc2)NC(=O)[C@@H](N)CCCCN)CSC(=O)[C@H](CC(C)C)NC(=O)[C@H](Cc2ccccc2)NC(=O)CNC1=O [compound 32, S. simulans AIP-I] (H-KYNPCLGFL; thioester 5-C; N-terminus assumed) ; what IC50 value has been reported?
Solution: 530

Problem: Suppose we examine the molecule NCCCC[C@H](N)C(=O)N[C@@H](Cc1ccc(O)cc1)C(=O)N[C@@H](Cc1ccc(O)cc1)C(=O)N1CCC[C@H]1C(=O)N[C@H]1CSC(=O)[C@H](Cc2ccccc2)NC(=O)[C@H](Cc2ccc(O)cc2)NC(=O)CNC(=O)[C@H](Cc2c[nH]c3ccccc23)NC1=O [compound 33, S. simulans AIP-II] (H-KYYPCWGYF; thioester 5-C) ; what IC50 value has been reported?
Solution: 2800

Problem: Suppose we examine the molecule NCCCC[C@H](N)C(=O)N[C@@H](Cc1ccc(O)cc1)C(=O)N[C@@H](CC(N)=O)C(=O)N1CCC[C@H]1C(=O)N[C@H]1CSC(=O)[C@H](Cc2ccccc2)NC(=O)[C@H](Cc2ccc(O)cc2)NC(=O)CNC(=O)[C@H](Cc2c[nH]c3ccccc23)NC1=O [compound 34, S. simulans AIP-III] (H-KYNPCWGYF; thioester 5-C) ; what IC50 value has been reported?
Solution: 590

Problem: Suppose we examine the molecule CC[C@H](C)[C@@H]1NC(=O)[C@H](Cc2ccccc2)NC(=O)[C@H](CC(=O)O)NC(=O)[C@@H](NC(=O)[C@@H](NC(=O)[C@H](CO)NC(=O)[C@@H](N)Cc2ccc(O)cc2)[C@@H](C)O)CSC(=O)[C@H](CCSC)NC1=O [compound 1, S. aureus AIP-I] (H-YSTCDFIM; thioester 4-C) ; what IC50 value has been reported?
Solution: 910

====

These molecules were tested on UniProt:O33587; IC50 is the recorded read-out.
Positions of bridges follow the written chain, without caps; N, C: chain ends. Residues, ends and D or L forms follow the SMILES beside them.
The reply should contain only the number, in nM.

Problem: Suppose we examine the molecule NCCCC[C@H](N)C(=O)N[C@@H](Cc1ccc(O)cc1)C(=O)N[C@@H](CC(N)=O)C(=O)N1CCC[C@H]1C(=O)N[C@H]1CSC(=O)[C@H](Cc2ccccc2)NC(=O)[C@H](Cc2ccc(O)cc2)NC(=O)CNC(=O)[C@H](Cc2c[nH]c3ccccc23)NC1=O [compound 34, S. simulans AIP-III] (H-KYNPCWGYF; thioester 5-C) ; what IC50 value has been reported?
Solution: 0.22

Problem: Suppose we examine the molecule CC(C)[C@H](NC(=O)[C@H](CO)NC(=O)[C@@H](N)CC(=O)O)C(=O)N[C@H]1CSC(=O)[C@H](Cc2ccccc2)NC(=O)[C@H](Cc2ccc(O)cc2)NC(=O)[C@H](CO)NC(=O)[C@H](C)NC1=O [compound 5, S. epidermidis AIP-I] (H-DSVCASYF; thioester 4-C) ; what IC50 value has been reported?
Solution: 858

====

TEST TARGET: S. epidermidis agr-II (Staphylococcus epidermidis, UniProt Q8VSX5)
Sequence (Q8VSX5 entry or part of it): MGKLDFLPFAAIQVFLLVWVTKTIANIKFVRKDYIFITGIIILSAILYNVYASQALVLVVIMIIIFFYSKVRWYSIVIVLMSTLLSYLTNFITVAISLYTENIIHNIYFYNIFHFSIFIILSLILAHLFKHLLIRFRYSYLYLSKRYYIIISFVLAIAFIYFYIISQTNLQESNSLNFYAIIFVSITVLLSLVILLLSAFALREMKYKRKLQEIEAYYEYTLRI
PROTOCOL TEXT: cell-based
Positions of bridges follow the written chain, without caps; N, C: chain ends. Residues, ends and D or L forms follow the SMILES beside them.
MEASURED ATTRIBUTE: IC50 (nM)
The reply should contain only the number, in nM.

Problem: Suppose we examine the compound CC(C)C[C@@H]1NC(=O)[C@@H](NC(=O)[C@@H]2CCCN2C(=O)[C@H](CC(N)=O)NC(=O)[C@H](Cc2ccc(O)cc2)NC(=O)[C@@H](N)CCCCN)CSC(=O)[C@H](CC(C)C)NC(=O)[C@H](Cc2ccccc2)NC(=O)CNC1=O [compound 32, S. simulans AIP-I] (H-KYNPCLGFL; thioester 5-C; N-terminus assumed) ; what IC50 value has been reported?
Solution: 0.26

Problem: Suppose we examine the compound NCCCC[C@H](N)C(=O)N[C@@H](Cc1ccc(O)cc1)C(=O)N[C@@H](CC(N)=O)C(=O)N1CCC[C@H]1C(=O)N[C@H]1CSC(=O)[C@H](Cc2ccccc2)NC(=O)[C@H](Cc2ccc(O)cc2)NC(=O)CNC(=O)[C@H](Cc2c[nH]c3ccccc23)NC1=O [compound 34, S. simulans AIP-III] (H-KYNPCWGYF; thioester 5-C) ; what IC50 value has been reported?
Solution: 0.11

Problem: Suppose we examine the compound NCCCC[C@H](N)C(=O)N[C@@H](Cc1ccc(O)cc1)C(=O)N[C@@H](Cc1ccc(O)cc1)C(=O)N1CCC[C@H]1C(=O)N[C@H]1CSC(=O)[C@H](Cc2ccccc2)NC(=O)[C@H](Cc2ccc(O)cc2)NC(=O)CNC(=O)[C@H](Cc2c[nH]c3ccccc23)NC1=O [compound 33, S. simulans AIP-II] (H-KYYPCWGYF; thioester 5-C) ; what IC50 value has been reported?
Solution: 0.26

====

Provide the recorded pIC50 for the entries that follow.
TEST TARGET: SA AgrC-II (Staphylococcus aureus)
Sequence (O33587 entry or part of it): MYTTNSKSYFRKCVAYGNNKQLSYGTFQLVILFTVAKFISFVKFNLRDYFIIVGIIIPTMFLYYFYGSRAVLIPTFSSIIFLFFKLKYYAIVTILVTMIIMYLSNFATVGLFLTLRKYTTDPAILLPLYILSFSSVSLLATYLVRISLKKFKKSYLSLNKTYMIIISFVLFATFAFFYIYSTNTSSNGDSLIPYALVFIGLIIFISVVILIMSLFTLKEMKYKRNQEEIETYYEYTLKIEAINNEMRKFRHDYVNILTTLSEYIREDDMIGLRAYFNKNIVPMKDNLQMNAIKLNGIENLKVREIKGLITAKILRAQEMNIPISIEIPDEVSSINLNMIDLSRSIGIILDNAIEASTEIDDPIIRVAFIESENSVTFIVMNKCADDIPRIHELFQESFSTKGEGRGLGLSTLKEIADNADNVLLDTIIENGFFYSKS
PROTOCOL TEXT: β-Lactamase assay, reporter strain RN10829 (P2-agrA:P3-blaZ) with pagrC-II
Assay type: cell-based
Text: The β-lactamase reporter strain RN10829 (P2-agrA:P3-blaZ) ([62]), with pagrC-I ([63]), pagrC-II, pagrC-III, or pagrC-IV ([11]), substituting the native agr locus with a chromosomal integration of P2-agrA and P3-blaZ and a plasmid from which a wild-type variant of the corresponding AgrC is expressed, was used to assess inhibition and activation of the AgrC receptor via β-lactamase activity in response to varying concentrations of the QS modulating peptides. […]
Positions of bridges follow the written chain, without caps; N, C: chain ends. Residues, ends and D or L forms follow the SMILES beside them.
Would you please state pIC50, meaning minus log10 of the concentration in mol/L, as a bare number?

Problem: Suppose we examine the molecule C[C@@H](O)[C@H](NC(=O)[C@H](CO)NC(=O)[C@@H](N)Cc1ccc(O)cc1)C(=O)N[C@H]1CSC(=O)[C@H](Cc2ccccc2)NC(=O)[C@H](Cc2ccc(O)cc2)NC(=O)[C@H](Cc2ccc(O)cc2)NC(=O)[C@H](CO)NC1=O [compound 20, S. caprae AIP-I] (H-YSTCSYYF; thioester 4-C) ; what pIC50 value has been reported?
Solution: 6.60

Problem: Suppose we examine the molecule NCCCC[C@H](N)C(=O)N[C@@H](Cc1ccc(O)cc1)C(=O)N[C@@H](CC(N)=O)C(=O)N1CCC[C@H]1C(=O)N[C@H]1CSC(=O)[C@H](Cc2ccccc2)NC(=O)[C@H](Cc2ccc(O)cc2)NC(=O)CNC(=O)[C@H](Cc2c[nH]c3ccccc23)NC1=O [compound 34, S. simulans AIP-III] (H-KYNPCWGYF; thioester 5-C) ; what pIC50 value has been reported?
Solution: 7.22
